Source: ChEMBL document CHEMBL1629624

assay: Mean residence time in human plasma at 100 mg, iv by LC-MS/MS analysis; type: ADME, organism-based
*1 amine or outer side, *2 acyl side, *3 side chain or, on linkers, in order; H or OH if unused. Where a SMILES comes first, the peptide text is derived from it. Bridges are numbered along the chain shown (N, C = ends). [ ]: non-standard residue; d: D form. The star is where a group is joined. pTerphenylCO(4''-OnC5H11) = CCCCCOc1ccc(-c2ccc(-c3ccc(C(=O)*)cc3)cc2)cc1; Orn(4R-OH,5R-OH) = O=C([C@H](C[C@@H](O)[C@@H](O)N[*:3])N[*:1])[*:2]; hTyr(3S-OH,4S-OH) = N[C@H](C(=O)O)[C@H](O)[C@@H](O)c1ccc(O)cc1; Pro(3S-OH,4S-Me) = C[C@H]1CN[C@H](C(=O)O)[C@H]1O; Hyp = O=C(O)[C@@H]1C[C@@H](O)CN1
QUANTITY: MRT

Looking up CCCCCOc1ccc(-c2ccc(-c3ccc(C(=O)N[C@H]4C[C@@H](O)[C@@H](O)NC(=O)[C@@H]5[C@@H](O)[C@@H](C)CN5C(=O)[C@H]([C@@H](C)O)NC(=O)[C@H]([C@H](O)[C@@H](O)c5ccc(O)cc5)NC(=O)[C@@H]5C[C@@H](O)CN5C(=O)[C@H]([C@@H](C)O)NC4=O)cc3)cc2)cc1 [ANIDULAFUNGIN] ({pTerphenylCO(4''-OnC5H11)}-[Orn(4R-OH,5R-OH)]T[Hyp][hTyr(3S-OH,4S-OH)]T[Pro(3S-OH,4S-Me)]; lactam 1-C) , I found its MRT recorded as 35.6 h
